- System name: T1, Mcl-1, Q07820
- T1 chain: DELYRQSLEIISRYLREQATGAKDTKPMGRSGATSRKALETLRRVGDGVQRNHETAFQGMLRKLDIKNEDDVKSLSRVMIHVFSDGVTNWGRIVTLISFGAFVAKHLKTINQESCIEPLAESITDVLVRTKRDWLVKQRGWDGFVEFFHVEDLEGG
- Procedure text: fluorescence polarisation, direct titration of receptor into 10 nM labelled peptide
pKd: −log10 of the molar value.

# Binder, Qualifying sign, pKd
records = [
    ("DAIIQMIVELLKRVGDQWEEEQSLAS [c6orf222]", "=", 7.64),
    ("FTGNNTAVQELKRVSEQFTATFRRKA [TUBB4Q]", "=", 5.83),
    ("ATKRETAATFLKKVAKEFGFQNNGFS [NPLOC4]", "<", 5.40),
    ("FERVEQMCIQIKEVGDRVNYIKRSLQ [TRPM7]", "=", 6.23),
    ("NATHEEVVHLLRNAGDEVTITVEYLR [SNTG2]", "=", 7.66),
    ("VDSIRPKCQELRHLCDQFSAEIARRR [MCF2L]", "<", 5.40),
    ("ACGDSVLARMLRELGDSLRRPQLRLW [SLC19A1]", "=", 7.66),
]

These data points were gathered from paper PMC4072508.
